System: MCF7 breast
Experiment: NCI tumour cell line growth inhibition, 48 h
# TGI listing for each entry below

>>> experimental_result("C[C@]12CC[C@@H]3c4ccc(O)cc4CC[C@H]3[C@@H]1CC[C@@H]2NS(=O)(=O)c1ccc(C(F)(F)F)cc1")
"5 µM"
>>> experimental_result("CC(=O)NCc1nc(C#N)c(N)o1")
"> 100 µM"
>>> experimental_result("COc1cc([C@@H]2c3cc4c(cc3C(O[C@@H]3O[C@@H]5CO[C@@H](c6cccs6)OC5[C@H](O)[C@H]3O)C3COC(=O)[C@@H]32)OCO4)cc(OC)c1O (stereo partly drawn)")
"16.5 µM"
>>> experimental_result("O=C(O)c1cc(N=Nc2ccc([As](=O)(O)O)cc2)ccc1O")
"> 100 µM"
>>> experimental_result("Cc1ccc2nc3ccccc3c(C3C4C(=O)N(c5ccc(Br)cc5Cl)C(=O)C4ON3C(C(N)=O)c3ccccc3)c2c1 (stereo not drawn)")
"> 25 µM"
>>> experimental_result("CC(=O)O[C@@H]1C=C(C)[C@H](CBr)O[C@@]2(C)CC[C@H](Br)C(C)(C)[C@H]12")
"> 100 µM"
>>> experimental_result("COc1ccc(-c2nc(-c3nc4ccc(C)cc4[nH]3)c3ccccn23)cc1")
"> 100 µM"
>>> experimental_result("Clc1cccc(Cl)c1C1SCC2=Nc3ccccc3CN21 (stereo not drawn)")
"52.7 µM"

Provide MCF7 breast TGI reading for CN(C)CC(CN(C)C)c1ccccn1 .
> 100 µM

Give TGI for this entry on MCF7 breast: CC(C)CSc1nc(Nc2ccccc2)c(C#N)c(-c2ccc(F)cc2)n1
> 100 µM

Under MCF7 breast, report TGI for COc1ccc(S(=O)(=O)N(Cc2ccc3c(n2)C=CC(C)(C)O3)C2CCC2)cc1OC
> 38.2 µM

// fetch TGI; item: COc1ccc(C(=O)/C=C/c2cccnc2Nc2cc(OC)c(OC)c(OC)c2)cc1 ; system: MCF7 breast
11 µM

State TGI (MCF7 breast) of O=P(O)(O)CN1CCN(CP(=O)(O)O)CCN(CP(=O)(O)O)CCN(CP(=O)(O)O)CC1 .
> 100 µM

State TGI on MCF7 breast. Entry: O=C(CC(=O)N(C(=O)c1ccccc1)c1ccc(Cl)cc1)N/N=C\c1cc(N=Nc2ccccc2Cl)ccc1O
> 100 µM
